What glycan array binding signal (z-score) was measured for each of the following?
- testedTarget: Gal6S(b1-4)Glc
- measurementDescription: glycan array binding signal (z-score within array); higher = stronger binding
- conditions: glycan notation: IUPAC condensed, linker removed
Shown is part of a subset that was picked to be rich in the strongest signals.
// return just the number, without any unit appended

Q: Determine from records and report glycan array binding signal (z-score) for OS9-MRH (Homo sapiens), Q13438 (protein) IPELLSPMRDAPCLLKTKDWWTYEFCYGRHIQQYHMEDSEIKGEVLYLGYYQSAFDWDDETAKASKQHRLKRYHSQTYGNGSKCDLNGRPREAEVRFLCDEGAGISGDYIDRVDEPLSCSYVLTIRTPRLCPHPLLRPPPSAAPQAI
Result: -0.643

Q: Answer with the recorded glycan array binding signal (z-score) of Gal 3 (Homo sapiens), P17931 (protein) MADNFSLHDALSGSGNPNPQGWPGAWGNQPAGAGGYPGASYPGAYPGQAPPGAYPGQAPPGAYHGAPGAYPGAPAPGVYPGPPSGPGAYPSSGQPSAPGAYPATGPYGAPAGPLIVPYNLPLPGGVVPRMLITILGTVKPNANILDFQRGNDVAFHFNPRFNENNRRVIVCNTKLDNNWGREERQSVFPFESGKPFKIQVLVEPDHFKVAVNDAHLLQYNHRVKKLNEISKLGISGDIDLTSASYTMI only.
Result: -0.376

Q: Complete the entry with glycan array binding signal (z-score) for NKR-PIC (Mus musculus) (protein) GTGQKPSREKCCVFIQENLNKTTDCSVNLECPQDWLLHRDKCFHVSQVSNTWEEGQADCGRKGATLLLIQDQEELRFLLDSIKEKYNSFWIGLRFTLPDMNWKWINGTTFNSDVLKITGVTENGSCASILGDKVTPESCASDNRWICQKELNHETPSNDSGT
Result: -0.305
